The measured values listed here are drawn from ChEMBL document CHEMBL5532647.

Target: Monoacylglycerol lipase ABHD6 (Mus musculus)
Sequence (whole entry): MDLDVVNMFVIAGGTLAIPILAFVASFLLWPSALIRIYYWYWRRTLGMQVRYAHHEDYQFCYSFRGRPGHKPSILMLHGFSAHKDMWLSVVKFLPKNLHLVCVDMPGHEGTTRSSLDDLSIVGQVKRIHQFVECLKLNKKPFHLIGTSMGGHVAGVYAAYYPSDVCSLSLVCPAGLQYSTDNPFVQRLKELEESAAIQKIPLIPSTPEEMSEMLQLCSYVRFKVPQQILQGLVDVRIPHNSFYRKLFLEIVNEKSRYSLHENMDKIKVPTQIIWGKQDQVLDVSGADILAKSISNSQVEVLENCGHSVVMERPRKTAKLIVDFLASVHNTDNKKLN
Assay: Inhibition of mouse brain ABHD6 at 10 uM incubated with compound for 25 mins by TAMRA-FP probe based SDS-PAGE analysis
Format: tissue-based
The source made the active and inactive calls. The rule behind the calls is not given here.
endpoint-label: inhibition

smiles-notation	endpoint-label	measurement
O=C(c1cccc(O)c1)N1CCC(Cc2cccc(Sc3cc(C(F)(F)F)ccn3)c2)CC1	inhibition	inactive
O=C(c1cc(O)ccc1F)N1CCC(Cc2cccc(Sc3cc(C(F)(F)F)ccn3)c2)CC1	inhibition	inactive
O=C(c1cccc(O)c1)N1CCC(Cc2ccc(F)c(Sc3cc(C(F)(F)F)ccn3)c2)CC1	inhibition	inactive
O=C(c1cc(O)ccc1F)N1CCN(Cc2cccc(Sc3cc(C(F)(F)F)ccn3)c2)CC1	inhibition	inactive
